B1: CDS2 (parent)
chain: LIVVTQSHLVIHNLFEGMIWFIVP

Variants of: B1
Assay: protein stability index of a GFP-peptide fusion (GPS, HEK-293T) (PSI 1-6); higher = more stable;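 note: lentivirally expressed fusions sorted by FACS into six bins by GFP to DsRed ratio, PSI derived from sequencing read proportions per bin multiplied by bin number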
Study conditions: c terminus: a fixed tail appended
Parameter measured: protein stability index

Prompt line: Param item = M18I ; retrieve measured protein stability index.
Response line: 3.09

Prompt line: Fill blank: measured protein stability index of the variant H12R is ____.
Response line: 1.5

Prompt line: # query: protein stability index of entry E16T
Response line: 2.83

Prompt line: Would you mind telling me what protein stability index value was observed for V10P ?
Response line: 1.52

Prompt line: Look up protein stability index: I2G
Response line: 2.41

Prompt line: Sample I22E — what was its protein stability index?
Response line: 3.14

Prompt line: For H8I , what is its reported protein stability index?
Response line: 2.81

Prompt line: Any idea what protein stability index was measured for T5S ?
Response line: 5.49

Prompt line: For P24H , what is its reported protein stability index?
Response line: 3.13

Prompt line: If you can, please state the reported protein stability index value of G17W .
Response line: 2.35

Prompt line: Which protein stability index value is on record for M18E ?
Response line: 4.08

Prompt line: Could you share which protein stability index value was measured for T5A ?
Response line: 2.62

Prompt line: Looking for the measured protein stability index of Q6M , can you help?
Response line: 1.77

Prompt line: Requested field: protein stability index. Item: I11H
Response line: 1.57

Prompt line: Value lookup for protein stability index; key = M18A
Response line: 4.48

Prompt line: Request the reported protein stability index associated with S7F
Response line: 2.19

Prompt line: Record request: protein stability index value, item G17V
Response line: 3.48

Prompt line: Return reported protein stability index; argument: L9V
Response line: 2.3

Prompt line: Given the variant L9P , what is its reported protein stability index?
Response line: 5.08

Prompt line: Returns the measured protein stability index for the input variant. Input: F15W
Response line: 4.64

Prompt line: Value lookup for protein stability index; key = L14I
Response line: 3.44

Prompt line: Using the record for N13G , report its protein stability index.
Response line: 2.9

Prompt line: Requested field: protein stability index. Item: T5K
Response line: 2.97

Prompt line: Query (variant): V3W ; field requested: protein stability index
Response line: 4.23

Prompt line: Please look up its protein stability index: V10K
Response line: 2.67

Prompt line: Look up protein stability index for this variant: T5R
Response line: 3.33

Prompt line: Entry I22M : reported protein stability index = ?
Response line: 3.27

Prompt line: Given W20F , state its recorded protein stability index.
Response line: 2.83

Prompt line: Fill in: protein stability index of I19A is ___
Response line: 2.65

Prompt line: Given F15E , state its recorded protein stability index.
Response line: 2.13

Prompt line: If you can, please state the reported protein stability index value of I2F .
Response line: 1.75

Prompt line: Name the recorded protein stability index for Q6E .
Response line: 2.59

Prompt line: Entry under review: I11D . Reported protein stability index?
Response line: 3.58

Prompt line: Fill in: protein stability index of T5E is ___
Response line: 2.95

Prompt line: Requested field: protein stability index. Item: V23W
Response line: 1.67

Prompt line: Could you share which protein stability index value was measured for F15P ?
Response line: 2.8

Prompt line: So what's the measured protein stability index for this one? L9S
Response line: 1.96

Prompt line: # protein stability index lookup, item L1I
Response line: 3.5

Prompt line: Endpoint output: protein stability index of G17P . Value?
Response line: 2.82

Prompt line: Which protein stability index value is on record for V10C ?
Response line: 2.23

Prompt line: I'd like to know its protein stability index. The variant in question is I11L
Response line: 2.48

Prompt line: Form field: reported protein stability index of P24Y
Response line: 2.3

Prompt line: Request the reported protein stability index associated with N13H
Response line: 1.83

Prompt line: Record request: protein stability index value, item F15N
Response line: 3.64

Prompt line: What does the data say about its protein stability index? Entry: H8L
Response line: 3.47

Prompt line: Form field: reported protein stability index of N13A
Response line: 4.23
